System: S. Typhimurium ATCC14028
Experiment: Static peg assay for prevention of biofilm formation (Calgary device, crystal violet)
Format: cell-based, Salmonella Typhimurium
Settings: 25° C.; strain not given; read-out: IC(50), preventive activity against S. typhimurium biofilms
reported endpoint: IC50

The following compounds have reported results that may help.
| compound | target of assay | IC50 |
| --- | --- | --- |
| CCCc1cn(CCCNc2ncc(-c3ccc(Br)cc3)[nH]2)nn1 [R3=4-BrPh; R4=H; R9=propyl; n=3] | S. Typhimurium ATCC14028 | 35.3 µM |
| Brc1ccc(-c2cnc(NCCn3cc(C4CCCCC4)nn3)[nH]2)cc1 [R3=4-BrPh; R4=H; R9=c-hexyl; n=2] | S. Typhimurium ATCC14028 | 8.4 µM |
| Cc1ccc(-c2cn(CCNc3ncc(-c4ccc(Br)cc4)[nH]3)nn2)cc1 [R3=4-BrPh; R4=H; R9=p-MePh; n=2] | S. Typhimurium ATCC14028 | > 800 µM |
| Clc1ccc(-c2cnc(NCCn3cc(C4CCCCC4)nn3)[nH]2)cc1Cl [R3=3,4-diClPh; R4=H; R9=c-hexyl; n=2] | S. Typhimurium ATCC14028 | 55.2 µM |
| CCCc1cn(CCNc2ncc(-c3ccc(Br)cc3)[nH]2)nn1 [R3=4-BrPh; R4=H; R9=propyl; n=2] | S. Typhimurium ATCC14028 | 25.3 µM |
| Clc1ccc(-c2cnc(NCCCn3cc(C4CCCCC4)nn3)[nH]2)cc1Cl [R3=3,4-diClPh; R4=H; R9=c-hexyl; n=3] | S. Typhimurium ATCC14028 | 26.8 µM |
| Fc1ccc(-c2cnc(NCCn3cc(C4CCCC4)nn3)[nH]2)cc1 [R3=4-FPh; R4=H; R9=c-pentyl; n=2] | S. Typhimurium ATCC14028 | 128 µM |
| CCCc1cn(CCCNc2ncc(-c3ccc(Cl)c(Cl)c3)[nH]2)nn1 [R3=3,4-diClPh; R4=H; R9=propyl; n=3] | S. Typhimurium ATCC14028 | 31.8 µM |
| Clc1ccc(-c2cnc(NCCCn3cc(-c4ccsc4)nn3)[nH]2)cc1Cl [R3=3,4-diClPh; R4=H; R9=thiofuran; n=3] | S. Typhimurium ATCC14028 | 2 µM |
| CCCCCCCc1cn(CCNc2ncc(-c3ccc(Br)cc3)[nH]2)nn1 [R3=4-BrPh; R4=H; R9=heptyl; n=2] | S. Typhimurium ATCC14028 | 189 µM |

Per the record, c1ccc(-c2cn(CCCNc3ncc(-c4ccccc4)[nH]3)nn2)cc1 [R3=Ph; R4=H; R9=phenyl; n=3] has IC50 of 40 µM

Per the record, CCCCCc1cn(CCNc2nc(-c3ccc(C)cc3)c(-c3ccc(Cl)cc3)[nH]2)nn1 [R3=p-ClPh; R4=p-MePh; R9=Pentyl; n=2] has IC50 of 371 µM

Per the record, CC(C)(C)c1cn(CCNc2ncc(C(c3ccccc3)c3ccccc3)[nH]2)nn1 [R3=CHPh2; R4=H; R9=t-Butyl; n=2] has IC50 of 30.9 µM

Per the record, Cc1ccc(-c2nc(NCCn3cc(C4CCCC4)nn3)[nH]c2-c2ccc(Cl)cc2)cc1 [R3=p-ClPh; R4=p-MePh; R9=c-Pentyl; n=2] has IC50 of 6.5 µM

###

Test system: S. Typhimurium ATCC14028
Experiment: Static peg assay for prevention of biofilm formation (Calgary device, crystal violet)
Format: cell-based, Salmonella Typhimurium
Conditions: 25° C., 24 hours, Table 15; read-out: (1) IC50 (biofilm inhibition)
reported endpoint: IC50
The number alone won't do; follow it with the unit.

The following compounds have reported results that may help.
| compound | IC50 |
| --- | --- |
| CCCCCCCCCCN1c2nccc[n+]2CC1(O)c1ccc([N+](=O)[O-])cc1 (stereo not drawn) [Compound 36] | 9.95 µM |
| CCCCCCCCCCN1c2nccc[n+]2CC1(O)c1ccc(-c2ccc([N+](=O)[O-])cc2)cc1 (stereo not drawn) | 200 µM |

Okay, next one:
Per the record, CCCCCCCCN1c2nccc[n+]2CC1(O)c1ccc(Cl)c(Cl)c1 (stereo not drawn) [Compound 49] has IC50 of 7.09 µM

###

Tested on: Pseudomonas aeruginosa PA14
Test: Static peg assay for prevention of biofilm formation (Calgary device, crystal violet)
Type: cell-based
Details: 25° C., Table 16; read-out: P. aeruginosa IC50 (biofilm formation)
Examples of compounds with documented pIC50 follow.
Reminder that pIC50 is minus the log10 of a molar concentration.

The following compounds have reported results that may help.
| compound | pIC50 |
| --- | --- |
| CCCCCCCCN1c2nccc[n+]2CC1(O)c1ccccc1 (racemic) | 4.72 |
| CCCCCCCN1c2nccc[n+]2CC1(O)c1ccc(Cl)cc1 (racemic) | 4.43 |

Fill in: Pseudomonas aeruginosa PA14 pIC50 for CCCCCCCCN1c2nccc[n+]2CC1(O)c1ccc(Cl)cc1 (racemic) = 4.66

Fill in: Pseudomonas aeruginosa PA14 pIC50 for CCCCCCN1c2nccc[n+]2CC1(O)c1ccc(Cl)cc1 (racemic) = 4.10

Fill in: Pseudomonas aeruginosa PA14 pIC50 for CC(C)N1c2nccc[n+]2CC1(O)c1ccc([N+](=O)[O-])cc1 (racemic) = 3.72

Fill in: Pseudomonas aeruginosa PA14 pIC50 for CCCCCN1c2nccc[n+]2CC1(O)c1ccc(Cl)cc1 (racemic) = 3.79

Fill in: Pseudomonas aeruginosa PA14 pIC50 for CCCCCCCCCCN1c2nccc[n+]2CC1(O)c1ccc([N+](=O)[O-])cc1 (stereo not shown) = 4.65

Fill in: Pseudomonas aeruginosa PA14 pIC50 for CCCCCCCCN1c2nccc[n+]2CC1(O)c1ccc([N+](=O)[O-])cc1 (stereo not shown) = 4.71

Fill in: Pseudomonas aeruginosa PA14 pIC50 for CCCCCCCCCCN1c2nccc[n+]2CC1(O)c1ccccc1 (racemic) = 4.33

Fill in: Pseudomonas aeruginosa PA14 pIC50 for CCCCCN1c2nccc[n+]2CC1(O)c1ccccc1 (racemic) = 3.25

Fill in: Pseudomonas aeruginosa PA14 pIC50 for CCCCN1c2nccc[n+]2CC1(O)c1ccc(Cl)cc1 (racemic) = 4.60

Fill in: Pseudomonas aeruginosa PA14 pIC50 for CCCCCCN1c2nccc[n+]2CC1(O)c1ccccc1 (racemic) = 3.39

Fill in: Pseudomonas aeruginosa PA14 pIC50 for CCCCCCCCN1c2nccc[n+]2CC1(O)c1ccc(F)cc1 (stereo not shown) = 3.97

###

System: Pseudomonas aeruginosa PA14
Assay: Static peg assay for prevention of biofilm formation (Calgary device, crystal violet)
Format: cell-based
Details: 25° C., 24 hours, Table 15; read-out: (2) IC50 (biofilm inhibition)
pIC50: −log10 of the molar value.
Could you label it MET if measured pIC50 is 5 or higher, and NOT MET otherwise?

| compound | assigned label |
| --- | --- |
| CCCCCCCCN1c2nccc[n+]2CC1(O)c1ccc(-c2ccc(-c3ccccc3)cc2)cc1 (stereo not drawn) | NOT MET |

Q: State whether the measured pIC50 reaches 5, counting equality as reaching it, for CCCCCCCCN1c2nccc[n+]2CC1(O)c1ccc(-c2ccc([N+](=O)[O-])cc2)cc1 (stereo not drawn)
Result: NOT MET

Q: State whether the measured pIC50 reaches 5, counting equality as reaching it, for CCCCCCCC[n+]1c(-c2ccc(-c3ccc([N+](=O)[O-])cc3)cc2)cn2cccnc21.[O-][Cl+3]([O-])([O-])[O-]
Result: MET

Q: State whether the measured pIC50 reaches 5, counting equality as reaching it, for CCCCCCCCCN1c2nccc[n+]2CC1(O)c1ccccc1 (racemic)
Result: MET

Q: State whether the measured pIC50 reaches 5, counting equality as reaching it, for CCCCCCCCCCN1c2nccc[n+]2CC1(O)c1ccccc1 (racemic)
Result: MET

Q: State whether the measured pIC50 reaches 5, counting equality as reaching it, for CCCCCCN1c2nccc[n+]2CC1(O)c1ccc(Cl)cc1 (racemic)
Result: NOT MET

###

Tested on: S. Typhimurium ATCC14028
Test: Static peg assay for prevention of biofilm formation (Calgary device, crystal violet)
Format: cell-based, Salmonella Typhimurium
Details: Salmonella enterica; 25° C., 24 hours, Table 15; read-out: (1) IC50 (biofilm inhibition)
Method: Evaluation of the biofilm inhibitory activity of some substituted 2-amino-1H-imidazoles of the invention was carried out by growing up biofilms of S. Typhimurium ATCC14028 or SL1344 or Pseudomonas aeruginosa PA14 in the presence of different concentrations (1/2 dilution series) of biofilm inhibitors, by using the Calgary biofilm device. […] The absorbance of the resolubilized stain at 570 nm is a measure of the amount of biofilm formed. […]
Examples of compounds with documented pIC50 follow.
Reminder that pIC50 is minus the log10 of a molar concentration.

The following compounds have reported results that may help.
| compound | pIC50 |
| --- | --- |
| CCCCCCCCN1c2nccc[n+]2C[C@@]1(O)c1cccc2ccccc12 [Compound 52] | 4.83 |
| CCCCCCCCCCN1c2nccc[n+]2CC1(O)c1cccc(Br)c1 (centres unmarked) | 4.47 |
| CCCCCCCCCCN1c2nccc[n+]2CC1(O)c1ccc(S(C)(=O)=O)cc1 (centres unmarked) | 4.66 |

Per the record, CCCCCCCCCCN1c2nccc[n+]2CC1(O)c1ccc(SC)cc1 (centres unmarked) has pIC50 of 4.34

Per the record, CCCCCCCCCCN1c2nccc[n+]2CC1(O)c1cccc2ccccc12 (centres unmarked) has pIC50 of 4.16

Where these numbers come from: patent US20130029981A1
